test: Oral bioavailability in cannulated Sprague-Dawley rat at 6 mg/kg administered via gastric gavage by LC-MS/MS analysis; format: ADME, organism-based; settings: in vivo
Consider the following compounds; for each one, report its bioavailability.
Give bare numbers, in %.

# per-item lookup of bioavailability; items listed below
1. CCNc1cc2oc(-c3ccc(F)cc3)c(C(=O)NC)c2cc1-c1ccc(OC)c(C(=O)NC2(c3ncccn3)CC2)c1
2. CCN(c1cc2oc(-c3ccc(F)cc3)c(C(=O)NC)c2cc1-c1ccc(OC)c(C(=O)NC2(c3ncccn3)CC2)c1)S(C)(=O)=O

Result:
57
20

====

assay: Half life in cannulated Sprague-Dawley rat at 2 mg/kg, iv administered as 10 mins infusion by LC-MS/MS analysis; type: ADME, organism-based; details: in vivo
assay.endpoint: half-life (h)
Give bare numbers, in h.

- CCNc1cc2oc(-c3ccc(F)cc3)c(C(=O)NC)c2cc1-c1ccc(OC)c(C(=O)NC2(c3ncccn3)CC2)c1: 4.7

Next:
Task: Give its half-life value. Item: CCN(c1cc2oc(-c3ccc(F)cc3)c(C(=O)NC)c2cc1-c1ccc(OC)c(C(=O)NC2(c3ncccn3)CC2)c1)S(C)(=O)=O
Result: 1.6
